Target: T1, TNFR1 (Homo sapiens, UniProt P19438)
T1 chain: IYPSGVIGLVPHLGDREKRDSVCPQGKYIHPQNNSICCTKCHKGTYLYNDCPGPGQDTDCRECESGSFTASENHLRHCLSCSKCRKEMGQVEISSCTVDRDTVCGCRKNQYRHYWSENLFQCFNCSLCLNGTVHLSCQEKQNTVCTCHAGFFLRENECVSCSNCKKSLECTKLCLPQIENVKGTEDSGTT
Assay: yeast display SC50
Measure: apparent Kd (screen) (nM)

Look over these answered cases.
Binder: V95I (designed binder) SMEEEVEKAAKEYEKKKKEAIEKHLEKLKAKDKEAAERFLKELEEAAKEYAKDEAKTMSEEEAKRRAKKYKEKVLLSELSEEEQKEIKEAEEKLIRTILKYVEEAAK
apparent Kd (screen) / nM: 1.69

Binder: E61D (designed binder) SMEEEVEKAAKEYEKKKKEAIEKHLEKLKAKDKEAAERFLKELEEAAKEYAKDEAKTMSEDEAKRRAKKYKEKVLLSELSEEEQKEIKEAEEKLVRTILKYVEEAAK
apparent Kd (screen) / nM: 1.05

1. L43M (designed binder) SMEEEVEKAAKEYEKKKKEAIEKHLEKLKAKDKEAAERFLKEMEEAAKEYAKDEAKTMSEEEAKRRAKKYKEKVLLSELSEEEQKEIKEAEEKLVRTILKYVEEAAK
2. H24P (designed binder) SMEEEVEKAAKEYEKKKKEAIEKPLEKLKAKDKEAAERFLKELEEAAKEYAKDEAKTMSEEEAKRRAKKYKEKVLLSELSEEEQKEIKEAEEKLVRTILKYVEEAAK
3. E54K (designed binder) SMEEEVEKAAKEYEKKKKEAIEKHLEKLKAKDKEAAERFLKELEEAAKEYAKDKAKTMSEEEAKRRAKKYKEKVLLSELSEEEQKEIKEAEEKLVRTILKYVEEAAK
Exercise: Ordering: ascending apparent Kd (screen). Please respond with the labels ordered as the question requires.
Key: 1, 3, 2
(1: 1.86 nM, 3: 8.56 nM, 2: 12.5 nM)

a. A10R (designed binder) SMEEEVEKARKEYEKKKKEAIEKHLEKLKAKDKEAAERFLKELEEAAKEYAKDEAKTMSEEEAKRRAKKYKEKVLLSELSEEEQKEIKEAEEKLVRTILKYVEEAAK
b. K100I (designed binder) SMEEEVEKAAKEYEKKKKEAIEKHLEKLKAKDKEAAERFLKELEEAAKEYAKDEAKTMSEEEAKRRAKKYKEKVLLSELSEEEQKEIKEAEEKLVRTILIYVEEAAK
c. K33L (designed binder) SMEEEVEKAAKEYEKKKKEAIEKHLEKLKAKDLEAAERFLKELEEAAKEYAKDEAKTMSEEEAKRRAKKYKEKVLLSELSEEEQKEIKEAEEKLVRTILKYVEEAAK
Exercise: Arrange the 3 binders from largest to smallest apparent Kd (screen). Please respond with the labels ordered as the question requires.
Key: b, c, a
(b: 1.4 nM, c: 0.653 nM, a: 0.446 nM)
